Target: UniProt P42336
Collected IC50 values appear next to each entry.

Example entries and their recorded answers appear below.
{"smilesEntry": "Cc1ccc(-c2ccc3c(N4CCOCC4)nc(-c4ccc(NC(=O)Nc5ccc(C(=O)N(C)C)cc5)cc4F)nc3c2)cn1", "reading": "< 50 nM"}
{"smilesEntry": "CN(C)CCN(C)C(=O)c1ccc(NC(=O)Nc2ccc(-c3nc(N4CCOCC4)c4ccc(-c5ccco5)cc4n3)cc2)cc1", "reading": "< 50 nM"}
{"smilesEntry": "CN(C)C(=O)c1ccc(NC(=O)Nc2ccc(-c3nc(N4CCOCC4)c4ccc(-c5ccco5)cc4n3)cc2)c(F)c1", "reading": "< 50 nM"}

Attention now turns to another entry.
Note to self: IC50 of "CN(C)C(=O)c1ccc(NC(=O)Nc2ccc(-c3nc(N4CCOCC4)c4cc(F)c(-c5cccnc5F)cc4n3)cc2)cc1" with UniProt P42336 was < 50 nM

====

Reported pIC50 values for a set of molecules
Biological target: UniProt P48736
Sequence (P48736 whole entry, looked up): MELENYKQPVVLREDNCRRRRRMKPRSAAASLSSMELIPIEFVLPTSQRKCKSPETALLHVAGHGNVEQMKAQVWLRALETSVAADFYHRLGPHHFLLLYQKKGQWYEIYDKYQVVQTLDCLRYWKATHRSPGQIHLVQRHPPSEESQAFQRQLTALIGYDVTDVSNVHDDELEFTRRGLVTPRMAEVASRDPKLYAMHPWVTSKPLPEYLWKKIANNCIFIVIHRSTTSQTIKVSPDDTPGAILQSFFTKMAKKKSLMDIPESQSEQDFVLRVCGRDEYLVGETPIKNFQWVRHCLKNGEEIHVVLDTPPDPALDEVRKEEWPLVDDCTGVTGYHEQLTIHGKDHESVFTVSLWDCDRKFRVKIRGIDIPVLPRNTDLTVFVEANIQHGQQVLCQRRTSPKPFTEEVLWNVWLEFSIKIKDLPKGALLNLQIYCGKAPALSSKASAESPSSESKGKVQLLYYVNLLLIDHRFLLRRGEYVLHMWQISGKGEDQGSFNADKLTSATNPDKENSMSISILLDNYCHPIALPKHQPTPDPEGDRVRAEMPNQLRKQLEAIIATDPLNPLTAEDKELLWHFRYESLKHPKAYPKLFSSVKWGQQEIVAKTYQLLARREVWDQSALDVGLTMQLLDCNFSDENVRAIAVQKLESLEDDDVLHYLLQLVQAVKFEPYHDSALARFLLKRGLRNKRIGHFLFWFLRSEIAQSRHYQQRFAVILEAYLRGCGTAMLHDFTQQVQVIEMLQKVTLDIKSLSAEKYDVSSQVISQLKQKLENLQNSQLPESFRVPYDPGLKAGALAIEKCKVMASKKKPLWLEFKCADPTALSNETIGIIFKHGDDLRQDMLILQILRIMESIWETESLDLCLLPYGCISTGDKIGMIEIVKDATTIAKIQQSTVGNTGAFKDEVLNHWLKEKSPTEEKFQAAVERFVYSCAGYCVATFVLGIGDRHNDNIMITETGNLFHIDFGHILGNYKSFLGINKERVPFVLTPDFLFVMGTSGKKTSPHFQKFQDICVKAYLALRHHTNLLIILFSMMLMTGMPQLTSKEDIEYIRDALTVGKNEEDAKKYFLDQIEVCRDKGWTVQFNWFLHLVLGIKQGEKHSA
pIC50: −log10 of the molar value.

Solved cases below.
{"smilesEntry": "CN(C)C(=O)c1ccc(NC(=O)Nc2ccc(-c3nc(N4CCOCC4)c4ncc(-c5cccc(S(C)(=O)=O)c5)cc4n3)cn2)cc1", "pIC50": "> 6.30"}
{"smilesEntry": "Cc1ccc(-c2ccc3c(N4CCOCC4)nc(-c4ccc(NC(=O)Nc5ccc(C(=O)N(C)C)cc5)cc4)nc3c2)o1", "pIC50": "6.00 to 6.30"}
{"smilesEntry": "CN(C)C(=O)c1ccc(NC(=O)Nc2ccc(-c3nc(N4CCOCC4)c4ncc(-c5cccc(S(C)(=O)=O)c5)cc4n3)cc2F)cc1", "pIC50": "> 6.30"}

Consider the additional molecule presented here.
Entry "CN(C)C(=O)c1ccc(NC(=O)Nc2ccc(-c3nc(N4CCOCC4)c4cc(F)c(-c5cnn(C)c5)cc4n3)cn2)cc1" , tested on UniProt P48736, has a reported pIC50 of > 6.30

====

Some compounds, each annotated with its measured pIC50.
Biological target: PIK3CA (human), P42336 [E545K]
Sequence (P42336 whole entry E545K, looked up): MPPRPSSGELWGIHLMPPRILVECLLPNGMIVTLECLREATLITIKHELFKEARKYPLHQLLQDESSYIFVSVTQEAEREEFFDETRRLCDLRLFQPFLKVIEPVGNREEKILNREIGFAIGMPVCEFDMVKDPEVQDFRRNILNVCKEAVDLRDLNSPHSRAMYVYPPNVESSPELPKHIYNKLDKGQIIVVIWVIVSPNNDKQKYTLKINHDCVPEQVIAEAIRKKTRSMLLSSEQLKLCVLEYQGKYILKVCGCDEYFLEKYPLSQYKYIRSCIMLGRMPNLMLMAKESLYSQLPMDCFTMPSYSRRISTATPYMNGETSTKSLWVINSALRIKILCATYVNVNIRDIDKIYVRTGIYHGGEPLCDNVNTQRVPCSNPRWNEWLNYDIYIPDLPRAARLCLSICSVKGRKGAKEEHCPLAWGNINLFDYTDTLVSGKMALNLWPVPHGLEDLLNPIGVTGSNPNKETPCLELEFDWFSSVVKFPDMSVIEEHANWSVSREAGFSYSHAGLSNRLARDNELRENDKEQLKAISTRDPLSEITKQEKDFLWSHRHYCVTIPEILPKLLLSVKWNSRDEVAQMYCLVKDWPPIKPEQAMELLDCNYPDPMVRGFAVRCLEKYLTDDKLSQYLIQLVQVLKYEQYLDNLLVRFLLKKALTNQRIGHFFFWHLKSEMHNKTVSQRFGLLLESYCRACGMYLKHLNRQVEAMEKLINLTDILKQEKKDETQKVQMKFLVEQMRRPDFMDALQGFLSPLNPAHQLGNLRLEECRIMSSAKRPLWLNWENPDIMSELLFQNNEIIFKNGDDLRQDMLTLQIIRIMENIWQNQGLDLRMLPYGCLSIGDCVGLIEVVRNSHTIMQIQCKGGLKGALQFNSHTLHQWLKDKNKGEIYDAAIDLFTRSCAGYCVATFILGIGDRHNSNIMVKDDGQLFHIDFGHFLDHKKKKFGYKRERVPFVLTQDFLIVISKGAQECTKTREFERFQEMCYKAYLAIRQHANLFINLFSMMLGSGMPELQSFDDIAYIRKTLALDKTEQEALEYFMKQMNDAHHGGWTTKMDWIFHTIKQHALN
Test: Assessment of PIK3CA(E545K) Kinase Activity
pIC50: −log10 of the molar value.

Answered cases to consult:
{"smilesEntry": "CN(C)C(=O)c1ccc(NC(=O)Nc2ccc(-c3nc(N4CCOCC4)c4ccc(-c5cccnc5)cc4n3)cc2)c(F)c1", "systemUnderTest": "PIK3CA (human), P42336 [E545K]", "pIC50": "6.30 to 7.30"}
{"smilesEntry": "CN(C)C(=O)c1ccc(NC(=O)Nc2ccc(-c3nc(N4CCOCC4)c4ncc(-c5cccc(S(C)(=O)=O)c5)cc4n3)cn2)cc1", "systemUnderTest": "PIK3CA (human), P42336 [E545K]", "pIC50": "> 7.30"}
{"smilesEntry": "CN(C)C(=O)c1ccc(NC(=O)Nc2ccc(-c3nc(N4CCOCC4)c4cc(F)c(-c5cnn(C)c5)cc4n3)cn2)cc1", "systemUnderTest": "PIK3CA (human), P42336 [E545K]", "pIC50": "> 7.30"}
{"smilesEntry": "CN(C)C(=O)c1ccc(NC(=O)Nc2ccc(-c3nc(N4CCOCC4)c4ncc(-c5cccc(S(C)(=O)=O)c5)cc4n3)cc2F)cc1", "systemUnderTest": "PIK3CA (human), P42336 [E545K]", "pIC50": "> 7.30"}
{"smilesEntry": "CN(C)C(=O)c1ccc(NC(=O)Nc2ccc(-c3nc(N4CCOCC4)c4ccc(-c5cccc(S(C)(=O)=O)c5)cc4n3)cn2)cc1F", "systemUnderTest": "PIK3CA (human), P42336 [E545K]", "pIC50": "> 7.30"}
{"smilesEntry": "CN(C)C(=O)c1ccc(NC(=O)Nc2ccc(-c3nc(N4CCOCC4)c4ccc(-c5ccco5)cc4n3)cc2)cc1", "systemUnderTest": "PIK3CA (human), P42336 [E545K]", "pIC50": "> 7.30"}

Proceed to the following item.
For record "CN(C)C(=O)c1ccc(NC(=O)Nc2ccc(-c3nc(N4CCOCC4)c4ccc(-c5cncnc5)cc4n3)cc2)c(F)c1" the listed pIC50 is 6.30 to 7.30
